# maps each entry to its ELISA score
- System Name: T1, human neonatal Fc receptor (hFcRn) (human, UniProt P55899 24-290; P61769 21-119)
- T1 construct: Biotinylated in the ELISA, Octet and yeast assays; also called human FcRn; huFcRn
- T1 sequence (P55899 24-290 limits assumed, chain 1 of 2): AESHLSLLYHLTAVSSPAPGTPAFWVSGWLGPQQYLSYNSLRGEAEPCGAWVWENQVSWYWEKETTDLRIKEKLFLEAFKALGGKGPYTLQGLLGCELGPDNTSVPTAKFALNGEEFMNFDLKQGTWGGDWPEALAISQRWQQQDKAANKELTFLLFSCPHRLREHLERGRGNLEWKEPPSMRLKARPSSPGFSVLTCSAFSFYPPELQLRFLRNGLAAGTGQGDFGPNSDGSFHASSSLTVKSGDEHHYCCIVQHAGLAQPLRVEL
- T1 sequence (P61769 21-119 limits assumed, chain 2 of 2): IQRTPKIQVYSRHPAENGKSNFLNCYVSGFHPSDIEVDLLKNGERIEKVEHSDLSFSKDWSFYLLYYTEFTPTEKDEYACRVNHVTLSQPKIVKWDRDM
- Assay Info: phage ELISA pH 7.4;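 further: higher score means stronger binding and above about 3 to 5 exceeds background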
Reply with the value as a number alone.

Binder	Reported Result
L5 isolate with insertion SEQ ID NO: 424 (other) EPKSCDKTHTCPPCPAPELLGGPSVFLFPPKPKDTLMISRTPEVTCVVVDVSHEDPEVKFNWYVDGVEVHNAKTKPREEQYNSTYRVVSVLTVLHQDWLNGKEYKCKVSNKALPAPIEKTISKAKGQPREPQVYTLPPSRDELTKNQVSLTCLVKGFYPSDIAVEWESNGGCQYPRKLCGGGQPENNYKTTPPVLDSDGSFFLYSKLTVDKSRWQQGNVFSCSVMHEALHNHYTQKSLSLSPGK	0.3
L6A isolate with insertion SEQ ID NO: 466 (other) EPKSCDKTHTCPPCPAPELLGGPSVFLFPPKPKDTLMISRTPEVTCVVVDVSHEDPEVKFNWYVDGVEVHNAKTKPREEQYNSTYRVVSVLTVLHQDWLNGKEYKCKVSNKALPAPIEKTISKAKGQPREPQVYTLPPSRDELGGCDRFQNVNVCGGTKNQVSLTCLVKGFYPSDIAVEWESNGQPENNYKTTPPVLDSDGSFFLYSKLTVDKSRWQQGNVFSCSVMHEALHNHYTQKSLSLSPGK	0.2

Next binder, ELISA score to be filled in.
For L5 isolate with insertion SEQ ID NO: 463 (other) EPKSCDKTHTCPPCPAPELLGGPSVFLFPPKPKDTLMISRTPEVTCVVVDVSHEDPEVKFNWYVDGVEVHNAKTKPREEQYNSTYRVVSVLTVLHQDWLNGKEYKCKVSNKALPAPIEKTISKAKGQPREPQVYTLPPSRDELTKNQVSLTCLVKGFYPSDIAVEWESNGGCMHSPHACGGGQPENNYKTTPPVLDSDGSFFLYSKLTVDKSRWQQGNVFSCSVMHEALHNHYTQKSLSLSPGK , what is its reported ELISA score?
3.6
